protocol_details: Study 1B multiple-dose pharmacokinetics
Assay type: in vivo, human
measurement_conditions: both, human, plasma, oral
reported_endpoint: clearance at 12 days

{"smiles_repr": "Cc1ccc(Sc2ccccc2N2CCNCC2)c(C)c1", "value_observed": "333 to 867 mL/min"}

====

protocol_details: Study 1B multiple-dose pharmacokinetics
Assay type: in vivo, human
measurement_conditions: male, human, plasma, oral, 5 mg, AUC0–24, day 12, male, 5 mg daily, fed, n = 6, mean (SD)

{"smiles_repr": "Cc1ccc(Sc2ccccc2N2CCNCC2)c(C)c1", "AUC(0-t) / ng·h/mL": 163}

====

protocol_details: Study 1B multiple-dose pharmacokinetics
Format: in vivo, human
measurement_conditions: male, human, plasma, oral, 20 mg, T1/2, day 1, male, 20 mg daily, fed, n = 6, mean (SD)

{"smiles_repr": "Cc1ccc(Sc2ccccc2N2CCNCC2)c(C)c1", "unit_tag": "h", "half-life": 44}

====

protocol_details: Study 1B multiple-dose pharmacokinetics
Type: in vivo, human
measurement_conditions: female, human, plasma, oral, 10 mg, AUC0–24, day 12, female, 10 mg daily, fed, n = 6, mean (SD)

{"smiles_repr": "Cc1ccc(Sc2ccccc2N2CCNCC2)c(C)c1", "AUC(0-t)": "0.295 µg·h/mL"}

====

protocol_details: Study 1A single-rising-dose pharmacokinetics
Assay type: in vivo, human
measurement_conditions: male, human, plasma, oral, 10 mg

{"smiles_repr": "Cc1ccc(Sc2ccccc2N2CCNCC2)c(C)c1", "unit_tag": "h", "half-life": 66}

====

protocol_details: Study 1A single-rising-dose pharmacokinetics
Assay type: in vivo, human
measurement_conditions: male, human, plasma, oral, 5 mg

{"compound": "Cc1ccc(Sc2ccccc2N2CCNCC2)c(C)c1 [Vortioxetine]", "Cmax": "1.9 ng/mL"}

====

protocol_details: Study 1B multiple-dose pharmacokinetics
Format: in vivo, human
measurement_conditions: female, human, plasma, oral, 5 mg, T1/2, day 12, female, 5 mg daily, fed, n = 5, mean (SD)
reported_endpoint: half-life (h)

{"compound": "Cc1ccc(Sc2ccccc2N2CCNCC2)c(C)c1 [Vortioxetine]", "reported_endpoint": "half-life", "unit_tag": "h", "value_observed": 79.8}

====

protocol_details: Study 1B multiple-dose pharmacokinetics
Assay type: in vivo, human
measurement_conditions: male, human, plasma, oral, 20 mg, AUC0–24, day 12, male, 20 mg daily, fed, n = 6, mean (SD)
reported_endpoint: AUC(0-t) (ng·h/mL)

{"smiles_repr": "Cc1ccc(Sc2ccccc2N2CCNCC2)c(C)c1", "unit_tag": "ng·h/mL", "value_observed": 433}

====

protocol_details: Study 2 single-dose pharmacokinetics in elderly adults
Format: in vivo, human
measurement_conditions: female, human, plasma, oral, 10 mg

{"smiles_repr": "Cc1ccc(Sc2ccccc2N2CCNCC2)c(C)c1", "Cmax / ng/mL": 4.6}

====

protocol_details: Study 1A single-rising-dose pharmacokinetics
Format: in vivo, human
measurement_conditions: male, human, plasma, oral, 2.5 mg

{"smiles_repr": "Cc1ccc(Sc2ccccc2N2CCNCC2)c(C)c1", "unit_tag": "µg·h/mL", "AUC(0-inf)": 0.0565}

====

protocol_details: Study 1B multiple-dose pharmacokinetics
Assay type: in vivo, human
measurement_conditions: male, human, plasma, oral, 10 mg, AUC0–24, day 12, male, 10 mg daily, fed, n = 6, mean (SD)

{"smiles_repr": "Cc1ccc(Sc2ccccc2N2CCNCC2)c(C)c1", "AUC(0-t) / ng·h/mL": 432}

Hello, the source for this data is paper PMC5900865, in case you need it.
